Assay: Cytotoxicity / cell viability in normal splenocytes, CCK-8, 72 h
Type: cell-based, BALB/c mice
Conditions: BALB/c, mouse, mean ± SD (n = 7), read-out: Cytotoxicity IC50, murine splenocytes
pIC50: −log10 of the molar value.
property: pIC50

C=C1[C@@H](C)[C@H]2[C@H](Cc3ccccc3)NC(=O)[C@]23[C@H](OC(C)=O)/C=C/[C@@](C)(O)C(=O)[C@@H](C)C/C=C/[C@H]3[C@@H]1O [Cytochalasin D, cytochalasin D, reference compound]: 6.00
